# tgt: human ether-à-go-go-related gene (hERG) potassium channel (human)
# Sequence (Q12809 whole entry, looked up): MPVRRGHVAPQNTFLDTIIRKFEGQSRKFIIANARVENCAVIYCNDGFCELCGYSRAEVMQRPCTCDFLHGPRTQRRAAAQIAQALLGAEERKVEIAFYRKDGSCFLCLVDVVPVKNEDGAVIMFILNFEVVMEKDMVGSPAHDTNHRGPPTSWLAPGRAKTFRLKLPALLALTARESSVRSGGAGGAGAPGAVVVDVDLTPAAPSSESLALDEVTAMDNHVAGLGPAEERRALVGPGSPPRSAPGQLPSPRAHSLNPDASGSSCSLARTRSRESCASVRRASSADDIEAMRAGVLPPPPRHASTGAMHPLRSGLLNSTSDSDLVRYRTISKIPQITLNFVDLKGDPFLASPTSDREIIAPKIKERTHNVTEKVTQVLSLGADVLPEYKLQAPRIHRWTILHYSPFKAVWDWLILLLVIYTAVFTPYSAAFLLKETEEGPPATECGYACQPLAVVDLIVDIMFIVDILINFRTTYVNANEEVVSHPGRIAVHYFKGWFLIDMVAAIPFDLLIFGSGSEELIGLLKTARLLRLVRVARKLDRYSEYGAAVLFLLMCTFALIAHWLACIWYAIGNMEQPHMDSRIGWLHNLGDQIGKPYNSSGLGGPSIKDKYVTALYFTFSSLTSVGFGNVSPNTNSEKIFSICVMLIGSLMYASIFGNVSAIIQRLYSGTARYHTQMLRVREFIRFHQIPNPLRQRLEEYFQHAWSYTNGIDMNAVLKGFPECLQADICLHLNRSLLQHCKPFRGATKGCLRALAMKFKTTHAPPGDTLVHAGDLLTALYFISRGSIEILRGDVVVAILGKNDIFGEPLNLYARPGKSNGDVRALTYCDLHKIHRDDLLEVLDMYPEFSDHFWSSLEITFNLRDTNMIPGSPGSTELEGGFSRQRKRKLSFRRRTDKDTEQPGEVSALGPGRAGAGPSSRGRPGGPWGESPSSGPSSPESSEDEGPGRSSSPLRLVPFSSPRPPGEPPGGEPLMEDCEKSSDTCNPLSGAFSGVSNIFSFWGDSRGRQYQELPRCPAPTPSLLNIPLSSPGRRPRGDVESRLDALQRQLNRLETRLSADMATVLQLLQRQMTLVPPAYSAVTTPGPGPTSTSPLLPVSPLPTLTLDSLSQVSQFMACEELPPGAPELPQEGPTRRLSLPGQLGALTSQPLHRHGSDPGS
# method_description: primary screen, population patch clamp on CHO cells stably expressing hERG; higher = less effect of the substance;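 note: peak tail current of the secondary pulse compared with the same well before compound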
The whole screen tested about 310,000 compounds, of which about 14,000 (4.5%) showed an effect of 50% or more. Effects have a minus sign here. Shown is part of a subset that was picked to be rich in strong results.
hERG current change (%, negative = inhibition) at 10uM below -40% gives n; hERG current change (%, negative = inhibition) at 10uM at or above it gives y.

Examples with answers:
In plain terms: is recorded hERG current change (%, negative = inhibition) at 10uM at least -40% for COC(=O)c1cccc(NC(=O)CCNC(=O)c2ccc([N+](=O)[O-])cc2)c1 ?
n

In plain terms: is recorded hERG current change (%, negative = inhibition) at 10uM at least -40% for COc1ccc(NC(=O)/C(=C\c2ccc(OS(=O)(=O)c3ccc(C)cc3)cc2)NC(=O)c2ccccc2)cc1 ?
y

In plain terms: is recorded hERG current change (%, negative = inhibition) at 10uM at least -40% for CCOc1ccc(NCc2cccn2-c2nnc(N3CCC(C(=O)NCCCN4CC(C)CC(C)C4)CC3)s2)cc1 (stereo not drawn) ?
n

In plain terms: is recorded hERG current change (%, negative = inhibition) at 10uM at least -40% for O=C(Cc1ccc(Cl)cc1)Nc1cccc(S(=O)(=O)Nc2ccccc2F)c1 ?
y

In plain terms: is recorded hERG current change (%, negative = inhibition) at 10uM at least -40% for O=C(NCC(O)c1ccc([N+](=O)[O-])cc1)c1cccc(S(=O)(=O)N2CCCC2)c1 (stereo not drawn) ?
n

Continuing:
In plain terms: is recorded hERG current change (%, negative = inhibition) at 10uM at least -40% for C/C(=N/NC(=O)c1ccc(Br)o1)c1ccncc1 ?
y

In plain terms: is recorded hERG current change (%, negative = inhibition) at 10uM at least -40% for COc1cc(Cl)c(CC(=O)c2c[nH]c3ccccc23)cc1OC ?
y

In plain terms: is recorded hERG current change (%, negative = inhibition) at 10uM at least -40% for CC(=O)Nc1ccc(NC(=O)C2CCCN(S(=O)(=O)c3ccc(-n4cnnn4)cc3)C2)cc1 (stereo not drawn) ?
y

In plain terms: is recorded hERG current change (%, negative = inhibition) at 10uM at least -40% for CCOc1ccc(CCNC(=O)C2CCN(c3nnc(-n4cccc4)s3)CC2)cc1 ?
y

In plain terms: is recorded hERG current change (%, negative = inhibition) at 10uM at least -40% for CCN(CC)S(=O)(=O)c1cccc(NC(=O)CCNC(=O)c2ccc([N+](=O)[O-])cc2)c1 ?
n

In plain terms: is recorded hERG current change (%, negative = inhibition) at 10uM at least -40% for O=C(CSc1ccc([N+](=O)[O-])cc1)Nc1cccc(S(=O)(=O)Nc2ccccc2F)c1 ?
n

In plain terms: is recorded hERG current change (%, negative = inhibition) at 10uM at least -40% for O=C1CSC(c2cccnc2)N1c1cccc(Cl)c1 (stereo not drawn) ?
y

In plain terms: is recorded hERG current change (%, negative = inhibition) at 10uM at least -40% for COc1ccc(N(CC(=O)NCCSCc2ccco2)S(=O)(=O)c2ccccc2)cc1 ?
y

In plain terms: is recorded hERG current change (%, negative = inhibition) at 10uM at least -40% for CN(C)S(=O)(=O)c1ccc(NC(=O)CCNC(=O)c2ccc([N+](=O)[O-])cc2)cc1 ?
y

In plain terms: is recorded hERG current change (%, negative = inhibition) at 10uM at least -40% for CCOc1ccc(NCc2cccn2-c2nnc(N3CCC(C(=O)NCCCN4CCCCC4CC)CC3)s2)cc1 (stereo not drawn) ?
n

In plain terms: is recorded hERG current change (%, negative = inhibition) at 10uM at least -40% for COC(=O)c1sccc1NC(=O)c1cc(OC)c(OC)c(OC)c1 ?
y

Entry source: paper PMC4336329
